Ref: patent US20070160981A1

biological target: SARS-CoV PLP2 (Severe acute respiratory syndrome coronavirus)

[
  {
    "mol_smiles": "[Zn+2]",
    "tested_on": "SARS-CoV PLP2 (Severe acute respiratory syndrome coronavirus)",
    "IC50, nM": 1300
  }
]

====

biological target: SARS-CoV PLP2 (Severe acute respiratory syndrome coronavirus); conditions: pH 6.8
recorded_metric: Cleavage % 12 hours

[
  {
    "primary_sequence": "LKGGAPIK",
    "data_value": "44.7 ± 3.5%"
  },
  {
    "primary_sequence": "FRLKGGAPIKGV",
    "data_value": "100 ± 0.0%"
  },
  {
    "primary_sequence": "FRLKGGAPIK [FRLKGG-APIK]",
    "data_value": "100 ± 0.0%"
  },
  {
    "primary_sequence": "VFRLKGGAPIKGVT [V F R L K G G A P I K G V T]",
    "data_value": "100 ± 0.0%"
  },
  {
    "primary_sequence": "RLKGGAPIKG [RLKGG-APIKG]",
    "data_value": "56.4 ± 5.6%"
  },
  {
    "primary_sequence": "VFRLKGGAPIK",
    "data_value": "100 ± 0.0%"
  },
  {
    "primary_sequence": "FRLKGGAPI [FRLKGG-API]",
    "data_value": "85.1 ± 4.9%"
  }
]

====

target: SARS-CoV PLP2 (Severe acute respiratory syndrome coronavirus); details: pH 6.8
Binary call on Cleavage % 2 hours with cut-off 40%: strictly below means met, and equality or higher means not met.

[
  {
    "primary_sequence": "LKGGAPIK",
    "label": "met"
  },
  {
    "primary_sequence": "FRLKGGAPIK [FRLKGG-APIK]",
    "label": "not met"
  },
  {
    "primary_sequence": "FRLKGGAPIKGV",
    "label": "not met"
  },
  {
    "primary_sequence": "VFRLKGGAPIKGVT [V F R L K G G A P I K G V T]",
    "label": "not met"
  },
  {
    "primary_sequence": "VFRLKGGAPIK",
    "label": "not met"
  },
  {
    "primary_sequence": "RLKGGAPIKG [RLKGG-APIKG]",
    "label": "met"
  },
  {
    "primary_sequence": "FRLKGGAPI [FRLKGG-API]",
    "label": "met"
  }
]

====

Entries with reported Cleavage % 2 hours on SARS-CoV PLP2 (Severe acute respiratory syndrome coronavirus, UniProt P0C6U8)

[
  {
    "primary_sequence": "NNVFRLKGGAPIKGVTFG [N N V F R L K G G A P I K G V T F G]",
    "Cleavage % 2 hours [%]": 60.5
  },
  {
    "primary_sequence": "NVFRLKGGAPIKGVTF [N V F R L K G G A P I K G V T F]",
    "Cleavage % 2 hours [%]": 63.0
  },
  {
    "primary_sequence": "ISLKGGKIVSTC [Gly2740-Lys2741]",
    "Cleavage % 2 hours [%]": 7
  },
  {
    "primary_sequence": "FRLKGGAPIKGV",
    "Cleavage % 2 hours [%]": 70
  }
]

====

Entries with reported Cleavage % 12 hours on SARS-CoV PLP2 (Severe acute respiratory syndrome coronavirus, UniProt P0C6U8)

[
  {
    "primary_sequence": "FRLKGGAPIKGV",
    "unit_of_measure": "%",
    "Cleavage % 12 hours": 100
  },
  {
    "primary_sequence": "NNVFRLKGGAPIKGVTFG [N N V F R L K G G A P I K G V T F G]",
    "unit_of_measure": "%",
    "Cleavage % 12 hours": 100
  },
  {
    "primary_sequence": "NVFRLKGGAPIKGVTF [N V F R L K G G A P I K G V T F]",
    "unit_of_measure": "%",
    "Cleavage % 12 hours": 100
  },
  {
    "primary_sequence": "ISLKGGKIVSTC [Gly2740-Lys2741]",
    "unit_of_measure": "%",
    "Cleavage % 12 hours": 29
  }
]

====

Entries with reported percentage of the cleavage after 2 hours of digestion on SARS-CoV PLP2 (Severe acute respiratory syndrome coronavirus, UniProt P0C6U8)
recorded_metric: percentage of the cleavage after 2 hours of digestion (%)

[
  {
    "primary_sequence": "LKGGAPIK",
    "data_value": 11
  },
  {
    "primary_sequence": "FRLKGGAPIK [FRLKGG-APIK]",
    "data_value": 50
  },
  {
    "primary_sequence": "ISLKGGKIVSTC [Gly2740-Lys2741]",
    "data_value": 7
  },
  {
    "primary_sequence": "FRLKGGAPIKGV",
    "data_value": 70
  },
  {
    "primary_sequence": "FRLKGGAPI [FRLKGG-API]",
    "data_value": 36
  }
]

====

molecular target: SARS-CoV PLP2 (Severe acute respiratory syndrome coronavirus, UniProt P0C6U8)
recorded_metric: percentage of the cleavage after 12 hours of digestion (%)

[
  {
    "primary_sequence": "LKGGAPIK",
    "data_value": 45
  },
  {
    "primary_sequence": "RLKGGAPIKG [RLKGG-APIKG]",
    "data_value": 56
  },
  {
    "primary_sequence": "FRLKGGAPIK [FRLKGG-APIK]",
    "data_value": 100
  },
  {
    "primary_sequence": "ISLKGGKIVSTC [Gly2740-Lys2741]",
    "data_value": 29
  },
  {
    "primary_sequence": "FRLKGGAPI [FRLKGG-API]",
    "data_value": 85
  },
  {
    "primary_sequence": "FRLKGGAPIKGV",
    "data_value": 100
  }
]
